target-desc: polyclonal antibodies in mouse sera specific for human PCSK9 aa 153-162 or aa 153-165
method-notes: competition ELISA, 20 ug peptide with sera, plate coated with m2 (competitor)
Param threshold (50%) applies to % Competition compared to the related control group; output 1.0 when value >= threshold, 0.0 when value < threshold.

Consider the following illustrative entries.
>>> print(df.to_string())
                                  binder  discrete_label
0                          SIPWNVERITPPR             1.0
1                          SIPWNLERITAPR             1.0
2                             TIPWNLERIT             1.0
3                          SIVWNLERITPPR             1.0
4  ERTKSDPGAQHREF [… (negative control)]             0.0
5                             VIPWNLERIQ             0.0

In the following, a different binder is considered.
Determine whether this binder has % Competition compared to the related control group no lower than 50%: `SIPHNLERIT` 0.0

Attribution: patent US20170112908A1
